activity coefficient by entry:
assay: activity coefficient (dimensionless); of the first substance listed, at infinite dilution; xn = mol fraction of the nth substance listed; conditions: 358.15 K; 101 kPa; Liquid; Chromatography; x1 = 0
Returns: the value as a bare number; no unit string appended.

Would you please look over these solved cases?
C=CCCC [1-pentene] + CCCCCCOCn1cc[n+](COCCCCCC)c1.O=S(=O)([N-]S(=O)(=O)C(F)(F)F)C(F)(F)F | 1.72
Cc1ccccc1C [1,2-dimethylbenzene] + CCCCCCOCn1cc[n+](COCCCCCC)c1.O=S(=O)([N-]S(=O)(=O)C(F)(F)F)C(F)(F)F | 0.895
CCOCC [diethyl ether] + CCCCCCOCn1cc[n+](COCCCCCC)c1.O=S(=O)([N-]S(=O)(=O)C(F)(F)F)C(F)(F)F | 0.89
CCCO [propan-1-ol] + CCCCCCOCn1cc[n+](COCCCCCC)c1.O=S(=O)([N-]S(=O)(=O)C(F)(F)F)C(F)(F)F | 0.803
CC(C)=O [acetone] + CCCCCCOCn1cc[n+](C)c1.O=S(=O)([N-]S(=O)(=O)C(F)(F)F)C(F)(F)F | 0.342
CCCCC [pentane] + CCCCCCOCn1cc[n+](C)c1.O=S(=O)([N-]S(=O)(=O)C(F)(F)F)C(F)(F)F | 5.43

Query C1CCCCC1 [cyclohexane] + CCCCCCOCn1cc[n+](COCCCCCC)c1.O=S(=O)([N-]S(=O)(=O)C(F)(F)F)C(F)(F)F yields activity coefficient of 1.89

###

test: activity coefficient (dimensionless); of the first substance listed, at infinite dilution; xn = mol fraction of the nth substance listed; conditions: 368.15 K; 101 kPa; Liquid; Chromatography; x1 = 0
observation-type: activity coefficient
Returns: the value as a bare number; no unit string appended.

Would you please look over these solved cases?
C=CCCCCC [1-heptene] + CCCCCCOCn1cc[n+](COCCCCCC)c1.O=S(=O)([N-]S(=O)(=O)C(F)(F)F)C(F)(F)F | 2.37
C=CCCCC [hex-1-ene] + CCCCCCOCn1cc[n+](C)c1.O=S(=O)([N-]S(=O)(=O)C(F)(F)F)C(F)(F)F | 4.03
C#CCCCCC [1-heptyne] + CCCCCCOCn1cc[n+](C)c1.O=S(=O)([N-]S(=O)(=O)C(F)(F)F)C(F)(F)F | 2.49
CCc1ccccc1 [ethylbenzene] + CCCCCCOCn1cc[n+](C)c1.O=S(=O)([N-]S(=O)(=O)C(F)(F)F)C(F)(F)F | 1.5
CCCOCCC [dipropyl ether] + CCCCCCOCn1cc[n+](COCCCCCC)c1.O=S(=O)([N-]S(=O)(=O)C(F)(F)F)C(F)(F)F | 1.5
CCCCCCCCCC [decane] + CCCCCCOCn1cc[n+](C)c1.O=S(=O)([N-]S(=O)(=O)C(F)(F)F)C(F)(F)F | 14.9

Query CCCCCC [hexane] + CCCCCCOCn1cc[n+](COCCCCCC)c1.O=S(=O)([N-]S(=O)(=O)C(F)(F)F)C(F)(F)F yields activity coefficient of 2.72

Query C1CCCC1 [cyclopentane] + CCCCCCOCn1cc[n+](COCCCCCC)c1.O=S(=O)([N-]S(=O)(=O)C(F)(F)F)C(F)(F)F yields activity coefficient of 1.54

Query CO [methanol] + CCCCCCOCn1cc[n+](C)c1.O=S(=O)([N-]S(=O)(=O)C(F)(F)F)C(F)(F)F yields activity coefficient of 0.775
